- assay-method-text: Pharmacokinetic assay of the salt forms in rats (10 mg/kg)
- Type: in vivo
- condition-label: male, rat, po; SD rats, p.o. 10 mg/kg, plasma, vehicle 0.5% HPMC; read-out: Half life t1/2 (converted)
observed-property: half-life
Number first, unit second.

Could I get half-life for every one of these entries?
1. CCS(=O)(=O)O.N#Cc1cc2n(CC(=O)Nc3ccc(F)cn3)c(=O)c3ccc(C(F)(F)F)nc3n2n1 [Ethanesulfonate (crystal form A)]
2. CS(=O)(=O)O.N#Cc1cc2n(CC(=O)Nc3ccc(F)cn3)c(=O)c3ccc(C(F)(F)F)nc3n2n1 [Methanesulfonate (crystal form A)]
3. Br.N#Cc1cc2n(CC(=O)Nc3ccc(F)cn3)c(=O)c3ccc(C(F)(F)F)nc3n2n1 [Hydrobromide (crystal form B)]

Given back:
1. 2.6 h
2. 2.7 h
3. 2.6 h

Asked: I have this molecule here, N#Cc1cc2n(CC(=O)Nc3ccc(F)cn3)c(=O)c3ccc(C(F)(F)F)nc3n2n1.O=S(=O)(O)O [Sulfate (crystal form B)] , and I need its recorded half-life.
Given back: 2.8 h

---

- assay-method-text: Hygroscopicity experiment (DVS)
- Type: physicochemical
- condition-label: Cycle 1, target relative humidity 0.0%, 25° C.
observed-property: % percentage of mass change, Sorption (%)
Answers are plain numbers, in %.

Worked examples follow.
- molecule: "Cl.N#Cc1cc2n(CC(=O)Nc3ccc(F)cn3)c(=O)c3ccc(C(F)(F)F)nc3n2n1 [Hydrochloride (crystal form A)]"
  unit: "%"
  % percentage of mass change, Sorption: 0.000
- molecule: "N#Cc1cc2n(CC(=O)Nc3ccc(F)cn3)c(=O)c3ccc(C(F)(F)F)nc3n2n1.O=S(=O)(O)O [Sulfate (crystal form B)]"
  unit: "%"
  % percentage of mass change, Sorption: "−0.002"

Hey, can you go through the list below and give me % percentage of mass change, Sorption for every item?
1. CCS(=O)(=O)O.N#Cc1cc2n(CC(=O)Nc3ccc(F)cn3)c(=O)c3ccc(C(F)(F)F)nc3n2n1 [Ethanesulfonate (crystal form A)]
2. CS(=O)(=O)O.N#Cc1cc2n(CC(=O)Nc3ccc(F)cn3)c(=O)c3ccc(C(F)(F)F)nc3n2n1 [Methanesulfonate (crystal form A)]

Given back:
0.000
0.000

---

- assay-method-text: Hygroscopicity experiment (DVS)
- Format: physicochemical
- condition-label: Cycle 1, target relative humidity 95.0%, 25° C.
- Source text: 7.1 Hygroscopicity experiment of crystal forms of different salts of compound 2-(2-cyano-5-oxo-8-(trifluoromethyl)pyrazolo[1,5-a]pyrido[3,2-e]pyrimidin-4(5H)-yl)-N-(5-fluoropyridin-2-yl)acetamide 7.1.1 Experimental objective: To investigate the hygroscopicity of crystal forms of different salts of compound 2-(2-cyano-5-oxo-8-(trifluoromethyl)pyrazolo[1,5-a]pyrido[3,2-e]pyrimidin-4(5H)-yl)-N-(5-fluoropyridin-2-yl)acetamide at different relative humidity, so as to provide a basis for storage. […]
observed-property: % percentage of mass change, Sorption (%)
Numbers only, in %.

- compound: "CCS(=O)(=O)O.N#Cc1cc2n(CC(=O)Nc3ccc(F)cn3)c(=O)c3ccc(C(F)(F)F)nc3n2n1 [Ethanesulfonate (crystal form A)]"
  unit: "%"
  % percentage of mass change, Sorption: 1.927

List the reported % percentage of mass change, Sorption of each compound below.
1. N#Cc1cc2n(CC(=O)Nc3ccc(F)cn3)c(=O)c3ccc(C(F)(F)F)nc3n2n1.O=S(=O)(O)O [Sulfate (crystal form B)]
2. CS(=O)(=O)O.N#Cc1cc2n(CC(=O)Nc3ccc(F)cn3)c(=O)c3ccc(C(F)(F)F)nc3n2n1 [Methanesulfonate (crystal form A)]
3. Br.N#Cc1cc2n(CC(=O)Nc3ccc(F)cn3)c(=O)c3ccc(C(F)(F)F)nc3n2n1 [Hydrobromide (crystal form B)]
4. Cl.N#Cc1cc2n(CC(=O)Nc3ccc(F)cn3)c(=O)c3ccc(C(F)(F)F)nc3n2n1 [Hydrochloride (crystal form A)]

Given back:
1.608
1.109
4.947
8.141

Data provenance: patent US20240376108A1
